The origin of these recorded values is patent US20150094321A1.

I'd appreciate it if you could supply pIC50 values for the items below.
System: NCIH2170
procedureText: Cell line proliferation study
Type: cell-based, human
conditionDescription: Homo sapiens, NCI-H2170; NCIH2170, lung; 72 hours; read-out: gIC50
pIC50: −log10 of the molar value.

Inquiry: What value of measured pIC50 is listed for "Cn1ncc(Cl)c1-c1cc(C(=O)N[C@H](CN)Cc2ccc(F)c(F)c2)oc1Cl" ?
Reply text: < 6.00

Inquiry: Subsequent entry: "CC(=O)Nc1cccc(-n2c(=O)n(C3CC3)c(=O)c3c(Nc4ccc(I)cc4F)n(C)c(=O)c(C)c32)c1"
Reply text: < 6.60
